Tested System: p38 MAP-kinase (Homo sapiens)
Sequence (Q16539 whole entry): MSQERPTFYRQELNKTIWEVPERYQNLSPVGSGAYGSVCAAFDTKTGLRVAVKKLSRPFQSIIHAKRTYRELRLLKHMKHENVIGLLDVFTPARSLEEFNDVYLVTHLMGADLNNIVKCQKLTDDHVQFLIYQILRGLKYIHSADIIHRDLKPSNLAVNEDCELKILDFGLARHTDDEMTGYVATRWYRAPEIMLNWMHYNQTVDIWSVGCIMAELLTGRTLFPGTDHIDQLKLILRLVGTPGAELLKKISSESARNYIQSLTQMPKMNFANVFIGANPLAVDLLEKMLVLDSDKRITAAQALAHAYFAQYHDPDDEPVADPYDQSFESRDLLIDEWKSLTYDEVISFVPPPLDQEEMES
Protocol Notes: p38 MAP-kinase enzymatic assay (phosphorylation of GST-tagged ATF2, chemoluminescence)
Type: biochemical
Test Conditions: inhibitor concentration 1 μM; activated p38 MAP-kinase 1 nM; ATP 100 μM; read-out: p38 (% Inh @ 1 μM)
Measured Property: inhibition at 1 µM (%)
Give bare numbers, in %.

Sample records with inhibition at 1 µM:
* COc1c(NC(=O)c2cc3cccc(CN4CCN(C(=O)[C@H]5CCCN5C)CC4)c3n2C)cc(C(C)(C)C)cc1NS(C)(=O)=O | 99.1
* COc1c(NC(=O)c2cc3cccc(CN4CCN(C(=O)CN5CC[C@H](O)C5)CC4)c3n2C)cc(C(C)(C)C)cc1NS(C)(=O)=O | 98.9
* COc1c(NC(=O)c2cc3cccc(CN4CCN(C(=O)[C@@H]5CCCN5C)CC4)c3n2C)cc(C(C)(C)C)cc1C(N)=O | 99.1
* COc1c(NC(=O)c2cc3cccc(CN4CCCN(C(=O)[C@@H]5CCN(C)C5)CC4)c3n2C)cc(C(C)(C)C)cc1NS(C)(=O)=O | 98
* COc1c(NC(=O)c2cc3cccc(CC4CCN(C(=O)[C@H]5CCCN5C)CC4)c3n2C)cc(C(C)(C)C)cc1NS(C)(=O)=O | 99.3
* CCN(CC)Cc1cc(C(C)(C)C)cc(NC(=O)c2cc3cccc(CN4CCN(C(=O)[C@@H]5CCCN5C)CC4)c3n2C)c1OC | 98.2
* COc1c(NC(=O)c2cc3cccc(CN4CCN(C(=O)C5CCCN(C)C5)CC4)c3n2C)cc(C(C)(C)C)cc1NS(C)(=O)=O (stereo not shown) | 99.4
* COc1c(NC(=O)c2cc3cccc(CN4CCN(C(=O)CN5CC[C@@H](O)C5)CC4)c3n2C)cc(C(C)(C)C)cc1NS(C)(=O)=O | 99.2

Give me inhibition at 1 µM for each of these compounds, listed below.
1. COc1c(NC(=O)c2cc3cccc(CN4CCN(C(=O)[C@@H]5CCCN5C)CC4)c3n2C)cc(C(F)(F)F)cc1NS(C)(=O)=O
2. COc1c(CN(C(C)C)C(C)C)cc(C(C)(C)C)cc1NC(=O)c1cc2cccc(CN3CCN(C(=O)[C@@H]4CCCN4C)CC3)c2n1C
3. COc1c(NC(=O)c2cc3cccc(CN4CCN(C(=O)CN5CCCC5)CC4)c3n2C)cc(C(C)(C)C)cc1NS(C)(=O)=O
4. COc1c(NC(=O)c2cc3cccc(CN4CCN(C(=O)[C@@H]5CCCN5C)CC4)c3n2C)cc(C(C)(C)C)cc1NS(C)(=O)=O

Response line:
97.9
95.8
98.4
99.6

Prompt line: Tell me the measured inhibition at 1 µM of `COc1c(NC(=O)c2cc3cccc(CN4CCCN(C(=O)[C@H]5CCN(C)C5)CC4)c3n2C)cc(C(C)(C)C)cc1NS(C)(=O)=O` , please.
Response line: 94.9
